Target: Gonadotropin-releasing hormone receptor (Rattus norvegicus) (UniProt P30969)
Sequence (P30969 whole entry): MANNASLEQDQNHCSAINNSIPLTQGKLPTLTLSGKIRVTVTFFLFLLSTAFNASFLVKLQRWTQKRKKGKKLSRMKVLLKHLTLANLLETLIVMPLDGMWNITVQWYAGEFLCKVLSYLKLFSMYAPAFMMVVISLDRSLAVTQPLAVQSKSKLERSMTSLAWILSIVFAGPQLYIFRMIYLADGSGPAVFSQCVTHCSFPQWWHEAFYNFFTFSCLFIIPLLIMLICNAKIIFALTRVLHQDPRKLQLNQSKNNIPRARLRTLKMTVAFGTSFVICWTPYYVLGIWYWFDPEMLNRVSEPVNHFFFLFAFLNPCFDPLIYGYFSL
Test: In vitro inhibition of LH release in rat pituitary cells at a dose of 1 ug of analogue and 1 ng of LHRH.
Format: functional, cell-based
Conditions: Pituitary gland cell
Square brackets hold non-standard residues; d marks the D form. Peptide text beside a SMILES is read from it. 2Nal = N[C@@H](Cc1ccc2ccccc2c1)C(=O)O
quantity-name: Activity

Worked examples, 4 molecules total:
# molecule, Activity
rows = [
    ("CC(=O)NC(Cc1ccc2ccccc2c1)C(=O)N[C@@H](Cc1ccc(Cl)cc1)C(=O)N[C@@H](CO)C(=O)N[C@@H](Cc1ccc(O)cc1)C(=O)NC(Cc1ccc2ccccc2c1)C(=O)N[C@@H](CC(C)C)C(=O)N[C@@H](CCCN=C(N)N)C(=O)N1CCC[C@H]1C(=O)N[C@H](C)C(N)=O (stereo in doubt)", 6),
    ("CC(C)C[C@H](NC(=O)C(Cc1ccc2ccccc2c1)NC(=O)[C@H](Cc1ccc(O)cc1)NC(=O)[C@H](CO)NC(=O)[C@H](Cc1cccnc1)NC(=O)[C@H](Cc1ccc(Cl)cc1)NC(=O)[C@@H]1CCC(=O)N1)C(=O)N[C@@H](CCCN=C(N)N)C(=O)N1CCC[C@H]1C(=O)N[C@H](C)C(N)=O (stereo in doubt)", 149),
    ("CC(=O)NC(Cc1ccc2ccccc2c1)C(=O)N[C@@H](CO)C(=O)N[C@@H](Cc1ccc(O)cc1)C(=O)NC(Cc1ccc2ccccc2c1)C(=O)N[C@@H](CC(C)C)C(=O)N[C@@H](CCCCNC(C)C)C(=O)N1CCC[C@H]1C(=O)N[C@H](C)C(N)=O (stereo in doubt)", 55),
    ("CC(=O)NC(Cc1ccc2ccccc2c1)C(=O)N[C@@H](Cc1ccc(Cl)cc1)C(=O)N[C@@H](Cc1cccnc1)C(=O)N[C@@H](CO)C(=O)N[C@@H](Cc1ccc(O)cc1)C(=O)NC(Cc1ccc2ccccc2c1)C(=O)N[C@@H](CC(C)C)C(=O)N[C@@H](CCCN=C(N)N)C(=O)N1CCC[C@H]1C(=O)N[C@H](C)C(N)=O (stereo in doubt)", 4),
]

1. CCNC(=O)[C@@H]1CCCN1C(=O)[C@H](Cc1ccc2ccccc2c1)NC(C)=O (Ac-[2Nal]-Pro-NHEt)
2. CCNC(=O)[C@@H]1CCCN1C(=O)C(CCCN=C(N)N)NC(=O)[C@H](CC(C)C)NC(=O)[C@H](CCCCNC(=O)c1ccccn1)NC(=O)C(CCCCNC(=O)c1ccccn1)NC(=O)[C@H](CO)NC(=O)[C@H](Cc1ccc2ccccc2c1)NC(C)=O (stereo partly specified)
Pick the one with the larger Activity: 1 vs 2 // return label of chosen record
1
(1: 135, 2: 8)

* * *

Target: UniProt P30969
Assay: In vitro inhibition of LH release was determined in rat pituitary cells at a dose of 100 ug of analogue and 1 ng of LHRH
Assay type: functional, cell-based
Conditions: Pituitary gland cell
Square brackets hold non-standard residues; d marks the D form. Peptide text beside a SMILES is read from it. * marks the point of attachment. ξ: configuration not given here. 2Nal = N[C@@H](Cc1ccc2ccccc2c1)C(=O)O; ξLys(iPr) = CC(C)NCCCCC(N)C(=O)O; Picolinoyl = O=C(c1ccccn1)*
quantity-name: Activity

I. CC(=O)N[C@@H](Cc1ccc2ccccc2c1)C(=O)N[C@@H](CCCCNC(=O)c1ccccn1)C(=O)N1CCC[C@H]1C(N)=O
II. CC(=O)N[C@@H](Cc1ccc2ccccc2c1)C(=O)N[C@@H](CCCCNC(=O)c1ccccn1)C(=O)NC(CCCCNC(C)C)C(=O)N1CCC[C@H]1C(N)=O (stereo partly drawn) (Ac-[2Nal]K(Picolinoyl)[ξLys(iPr)]P-NH2)
III. CC(=O)N[C@@H](Cc1ccc2ccccc2c1)C(=O)N[C@@H](C)C(N)=O (Ac-[2Nal]-Ala-NH2)
Descending sort on Activity required. Put the labels in the requested order and write them down.
II, I, III
(II: 118, I: 71, III: 16)

* * *

Target: Gonadotropin-releasing hormone receptor (Rattus norvegicus)
Assay: In vitro inhibition of LH release was determined in rat pituitary cells at a dose of 0.1 ug of analogue and 1 ng of LHRH
Assay type: functional, cell-based
Settings: Pituitary gland cell
Square brackets hold non-standard residues; d marks the D form. Peptide text beside a SMILES is read from it. 2Nal = N[C@@H](Cc1ccc2ccccc2c1)C(=O)O
quantity-name: Activity

Worked examples, 3 compounds total:
# compound, target-system, Activity
data = [
    ("CC(=O)NC(Cc1ccc2ccccc2c1)C(=O)N[C@@H](Cc1ccc(Cl)cc1)C(=O)N[C@@H](CO)C(=O)N[C@@H](Cc1ccc(O)cc1)C(=O)NC(Cc1ccc2ccccc2c1)C(=O)N[C@@H](CC(C)C)C(=O)N[C@@H](CCCN=C(N)N)C(=O)N1CCC[C@H]1C(=O)N[C@H](C)C(N)=O (stereo in doubt)", "Gonadotropin-releasing hormone receptor (Rattus norvegicus)", 29),
    ("CC(=O)N[C@H](Cc1ccc2ccccc2c1)C(=O)N[C@H](Cc1cccnc1)C(=O)N[C@@H](CO)C(=O)N[C@@H](Cc1ccc(O)cc1)C(=O)N[C@H](Cc1ccc2ccccc2c1)C(=O)N[C@@H](CC(C)C)C(=O)N[C@@H](CCCN=C(N)N)C(=O)N1CCC[C@H]1C(=O)N[C@H](C)C(N)=O", "Gonadotropin-releasing hormone receptor (Rattus norvegicus)", 14),
    ("CC(=O)N[C@@H](Cc1ccc2ccccc2c1)C(=O)N[C@@H](CO)C(=O)N[C@@H](Cc1ccc2ccccc2c1)C(=O)N[C@@H](CC(C)C)C(=O)N[C@@H](CCCN=C(N)N)C(=O)N1CCC[C@H]1C(=O)N[C@@H](C)C(N)=O (Ac-[2Nal]S[2Nal]LRPA-NH2)", "Gonadotropin-releasing hormone receptor (Rattus norvegicus)", 117),
]

a. CCNC(=O)[C@@H]1CCCN1C(=O)[C@H](CCCN=C(N)N)NC(=O)[C@H](CC(C)C)NC(=O)[C@@H](Cc1cccnc1)NC(=O)[C@H](Cc1ccc(O)cc1)NC(=O)[C@H](CO)NC(=O)[C@@H](Cc1ccc2ccccc2c1)NC(C)=O
b. CCNC(=O)[C@@H]1CCCN1C(=O)[C@H](CCCN=C(N)N)NC(=O)[C@H](CC(C)C)NC(=O)[C@@H](Cc1c[nH]c2ccccc12)NC(=O)[C@H](Cc1ccc(O)cc1)NC(=O)[C@H](CO)NC(=O)[C@@H](Cc1ccc2ccccc2c1)NC(C)=O
Pick the one with the larger Activity: a vs b // return label of chosen record
a

* * *

Target: Gonadotropin-releasing hormone receptor (Rattus norvegicus) (UniProt P30969)
Assay: In vitro inhibition of LH release was determined in rat pituitary cells at a dose of 0.3 ug of analogue and 1 ng of LHRH
Format: functional, cell-based
Conditions: Pituitary gland cell
Square brackets hold non-standard residues; d marks the D form. Peptide text beside a SMILES is read from it. 2Nal = N[C@@H](Cc1ccc2ccccc2c1)C(=O)O
quantity-name: Activity

Worked examples, 2 compounds total:
# compound, Activity
data = [
    ("CCNC(=O)[C@@H]1CCCN1C(=O)[C@H](CCCN=C(N)N)NC(=O)[C@H](CC(C)C)NC(=O)[C@@H](Cc1c[nH]c2ccccc12)NC(=O)[C@H](Cc1ccc(O)cc1)NC(=O)[C@H](CO)NC(=O)[C@@H](Cc1ccc2ccccc2c1)NC(C)=O", 10),
    ("CC(=O)NC(Cc1ccc2ccccc2c1)C(=O)N[C@@H](CO)C(=O)N[C@@H](Cc1ccc(O)cc1)C(=O)NC(Cc1ccc2ccccc2c1)C(=O)N[C@@H](CC(C)C)C(=O)N[C@@H](CCCN=C(N)N)C(=O)N1CCC[C@H]1C(=O)N[C@H](C)C(N)=O (stereo in doubt)", 12),
]

a. CCNC(=O)[C@@H]1CCCN1C(=O)[C@H](CCCN=C(N)N)NC(=O)[C@H](CC(C)C)NC(=O)[C@@H](Cc1ccc2ccccc2c1)NC(=O)[C@H](Cc1ccc(O)cc1)NC(=O)[C@H](CO)NC(=O)[C@@H](Cc1ccc2ccccc2c1)NC(C)=O
b. CC(=O)N[C@H](Cc1ccc2ccccc2c1)C(=O)N[C@@H](CO)C(=O)N[C@@H](Cc1ccc(O)cc1)C(=O)N[C@H](Cc1ccc2ccccc2c1)C(=O)N[C@@H](CC(C)C)C(=O)N[C@@H](CCCN=C(N)N)C(=O)N1CCC[C@H]1C(N)=O
c. CC(=O)N[C@H](Cc1ccc2ccccc2c1)C(=O)N[C@@H](CO)C(=O)N[C@@H](Cc1ccc(O)cc1)C(=O)N[C@H](Cc1ccc2ccccc2c1)C(=O)N[C@@H](CC(C)C)C(=O)N[C@@H](CCCN=C(N)N)C(=O)N1CCC[C@H]1C(=O)NCC(N)=O
d. CCNC(=O)[C@@H]1CCCN1C(=O)[C@H](CCCN=C(N)N)NC(=O)[C@H](CC(C)C)NC(=O)[C@@H](Cc1cccnc1)NC(=O)[C@H](Cc1ccc(O)cc1)NC(=O)[C@H](CO)NC(=O)[C@@H](Cc1ccc2ccccc2c1)NC(C)=O
e. CC(=O)N[C@@H](Cc1ccc2ccccc2c1)C(=O)N[C@@H](CO)C(=O)N[C@@H](Cc1ccc2ccccc2c1)C(=O)N[C@@H](CC(C)C)C(=O)N[C@@H](CCCN=C(N)N)C(=O)N1CCC[C@H]1C(=O)N[C@@H](C)C(N)=O (Ac-[2Nal]S[2Nal]LRPA-NH2)
Rank by Activity (largest to smallest). Put the labels in the requested order and write them down.
c, d, e, b, a
(c: 112, d: 69, e: 37, b: 13, a: 4)
